- Tested on: effets β1 (augmentation de la force contractile du myocarde) de l'isoprénaline
- EXPERIMENTAL_DETAILS: β-blocking activity: inhibition of the β1 effects of intravenous isoprenaline in anaesthetised dogs
- Format: in vivo, chiens
- STUDY_CONDITIONS: Canis lupus familiaris, iv; 0,100 mg/kg I.V., dog; inhibition given with negative sign; read-out: % d'inhibition des effets β1^(+) de l'Isoprénaline
- Experimental: Des chiens tout-venants mâles ou femelles sont anesthésiés au mébubarbital sodique (30 mg/kg I.V.) et ventilés artificiellement par une pompe Pesty RPP. Ils sont supplémentés en oxygène. On mesure: • - la pression carotidienne systolique et diastolique • - la force contractile du myocarde. Les signaux sont amplifiés et enregistrés sur Dynograph Beckman. […]
MEASURED_ATTRIBUTE: inhibition at 0.1 mg/kg (%)
Provide the reading as a plain figure in %.

Observe how each entry below is paired with its result.
[
  {
    "MOLECULE": "CC(C)NCC(O)COc1ccc(NC(=O)Cc2ccsc2)cc1C#N (stereo not shown)",
    "inhibition at 0.1 mg/kg (%)": -91
  },
  {
    "MOLECULE": "CC(C)NCC(O)COc1ccc(NC(=O)Cc2cccs2)cc1Br (stereo not shown)",
    "inhibition at 0.1 mg/kg (%)": -93
  },
  {
    "MOLECULE": "CC(C)(C)NCC(O)COc1ccc(NC(=O)Cc2ccsc2)cc1Br (stereo not shown)",
    "inhibition at 0.1 mg/kg (%)": -97
  },
  {
    "MOLECULE": "CC(C)(C)NCC(O)COc1ccc(NC(=O)Cc2ccsc2)cc1C#N (stereo not shown)",
    "inhibition at 0.1 mg/kg (%)": -100
  },
  {
    "MOLECULE": "CC(C)NCC(O)COc1ccc(NC(=O)Cc2ccsc2)cc1Cl (stereo not shown)",
    "inhibition at 0.1 mg/kg (%)": -100
  },
  {
    "MOLECULE": "CC(C)NCC(O)COc1ccc(NC(=O)Cc2cccs2)cc1C#N (stereo not shown)",
    "inhibition at 0.1 mg/kg (%)": -64
  },
  {
    "MOLECULE": "CC(C)(C)NCC(O)COc1ccc(NC(=O)Cc2cccs2)cc1C#N (stereo not shown)",
    "inhibition at 0.1 mg/kg (%)": -100
  },
  {
    "MOLECULE": "CC(C)NCC(O)COc1ccc(NC(=O)Cc2cccs2)cc1F (stereo not shown)",
    "inhibition at 0.1 mg/kg (%)": -83
  },
  {
    "MOLECULE": "CC(C)(C)NCC(O)COc1ccc(NC(=O)Cc2cccs2)cc1Br (stereo not shown)",
    "inhibition at 0.1 mg/kg (%)": -100
  },
  {
    "MOLECULE": "CC(C)(C)NCC(O)COc1ccc(NC(=O)Cc2ccsc2)cc1Cl (stereo not shown)",
    "inhibition at 0.1 mg/kg (%)": -100
  }
]

Please look up its inhibition at 0.1 mg/kg: C=CCc1cc(NC(=O)Cc2ccsc2)ccc1OCC(O)CNC(C)(C)C (stereo not shown)
-100

Please look up its inhibition at 0.1 mg/kg: CC(C)(C)NCC(O)COc1ccc(NC(=O)Cc2cccs2)cc1Cl (stereo not shown)
-100
